Value source: paper PMC5540273

- System: PDGFRA
- CONDITION_INFO: concentration: 1 μM, replicates: in singlicate; n = 1;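 further: KINOMEscan kinase panel screen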
Exercise: for every item that follows, state its recorded %Inh.
Answers are plain numbers, in %.

molecule="Cc1ccc(NC(=O)Nc2ccc(Cl)c(C(F)(F)F)c2)cc1-c1ccc(C(=O)Nc2ccncc2)cc1 [GSK1398470]" measurement_target=PDGFRA measurement_label=%Inh numeric_readout=19
molecule="CCn1c(-c2c(N)noc2C)nc2cnccc21 [SB-737856]" measurement_target=PDGFRA measurement_label=%Inh numeric_readout=0

Would you mind listing %Inh for each of the following molecules?
1. Cn1cncc1-c1cc2c(Nc3ccc(OCc4ccccc4)cc3)ncnc2cn1 [GW281179]
2. CCn1c(-c2ccccc2)nc2cnccc21 [SB-733416]
3. Fc1ccc(-c2nc[nH]c2-c2ccncc2)cc1 [SB-217360]
4. CS(=O)(=O)CCNCc1nc(-c2ccc3ncnc(Nc4ccc(OCc5ccccc5)c(Cl)c4)c3c2)cs1.Cl [GW582764]

-- reply
0
0
0
0

Would you mind listing %Inh for each of the following molecules?
1. Cc1nccc(-c2c(-c3ccc(F)cc3)ncn2CCCN2CCOCC2)n1.Cl [SB-282975]
2. COc1ccc(Nc2nccc(N3CCC(NC(=O)C(C)c4ccc(Cl)cc4)CC3)n2)cc1 (stereo not drawn) [GSK1379812]
3. CN1c2ccc(-c3ccc(C(N)=O)cc3)cc2-c2[nH]ncc2S1(=O)=O

-- reply
1: 0; 2: 0; 3: 0

Would you mind listing %Inh for each of the following molecules?
1. CC(=O)c1c(C)c2cnc(Nc3ccc(N4CCNCC4)cn3)nc2n(C2CCCC2)c1=O
2. Cc1c(Cn2c3ccccc3n3c(=O)cc(N4CCOCC4)nc23)cccc1C(F)(F)F [GSK2306394]
3. CC(C)c1ccc(O)cc1Nc1ccnc2ccc(C(F)(F)F)cc12 [GW482059]

-- reply
1. 0
2. 11
3. 3

---

- Tested on: CSNK2A1
- CONDITION_INFO: concentration: 1 μM, replicates: in singlicate; n = 1
Exercise: for every item that follows, state its recorded %Inh.
Answers are plain numbers, in %.

Some entries whose results are on file:
molecule="CCn1c(-c2c(N)noc2C)nc2cnccc21 [SB-737856]" measurement_label=%Inh unit_of_measure=% numeric_readout=0
molecule="Cc1ccc(NC(=O)Nc2ccc(Cl)cc2)cc1-c1ccc(C(=O)Nc2ccncc2)cc1 [GSK1398472]" measurement_label=%Inh unit_of_measure=% numeric_readout=0
molecule="COc1ccc(Nc2nccc(N3CCC(NC(=O)c4cc5ccccc5s4)C3)n2)cc1 (stereo not drawn) [GSK1379738]" measurement_label=%Inh unit_of_measure=% numeric_readout=5
molecule="Cc1ccc(NC(=O)c2ccc(Cl)cc2)cc1-c1ccc(C(=O)Nc2ccncc2)cc1 [GSK1398467]" measurement_label=%Inh unit_of_measure=% numeric_readout=0
molecule="CC[C@@H]1CO[C@H](C(=O)Nc2ccccc2)CN1c1cc(-c2ccc3c(N)n[nH]c3c2)nc(NC)n1 [GSK2376236]" measurement_label=%Inh unit_of_measure=% numeric_readout=12
molecule="Cl.Cl.Cl.N#Cc1ccc(CCNc2nccc(-c3cccc(CN4CCNCC4)c3)n2)cc1 [GSK2137462]" measurement_label=%Inh unit_of_measure=% numeric_readout=20
molecule="COc1ccc(Nc2nccc(NCCNC(=O)Nc3cc(C)ccc3C)n2)cc1 [GSK1379899]" measurement_label=%Inh unit_of_measure=% numeric_readout=1
molecule="COc1cccc(CNC(=O)NC2CCN(c3ccnc(Nc4ccc(F)cc4)n3)C2)c1 (stereo not drawn) [GSK1379723]" measurement_label=%Inh unit_of_measure=% numeric_readout=0
molecule="CC(=O)c1cccc(NC(=O)NC2CCN(c3ccnc(Nc4ccc(F)cc4)n3)C2)c1 (stereo not drawn) [GSK1379710]" measurement_label=%Inh unit_of_measure=% numeric_readout=16
molecule="Cc1nccc(-c2c(-c3ccc(F)cc3)ncn2CCCN2CCOCC2)n1.Cl [SB-282975]" measurement_label=%Inh unit_of_measure=% numeric_readout=1

Would you mind listing %Inh for each of the following molecules?
1. CS(=O)(=O)CCNCc1nc(-c2ccc3ncnc(Nc4ccc(OCc5ccccc5)c(Cl)c4)c3c2)cs1.Cl [GW582764]
2. Cn1cncc1-c1cc2c(Nc3ccc(OCc4ccccc4)cc3)ncnc2cn1 [GW281179]
3. COC(=O)C(Cc1ccccc1)NC(=O)NC1CCN(c2ccnc(Nc3ccc(F)cc3)n2)C1 (stereo not drawn) [GSK1379714]
4. CC(=O)c1c(C)c2cnc(Nc3ccc(N4CCNCC4)cn3)nc2n(C2CCCC2)c1=O
5. Cn1cnc2c(N)ncnc21 [SKF-97623]

-- reply
[0, 0, 0, 0, 0]

Would you mind listing %Inh for each of the following molecules?
1. COc1ccc2cc(-c3nc(-c4ccccc4C(C)C)[nH]c3-c3ccncc3)ccc2c1 [SB-660566]
2. O=C(Nc1n[nH]c2nc(-c3ccco3)c(Br)cc12)C1CCN(Cc2ccccc2)C1.O=C(O)[C@H](O)[C@@H](O)C(=O)O (stereo not drawn) [SB-742034]
3. COc1cccc(NC(=O)Nc2ccc(C)c(-c3ccc(C(=O)Nc4ccncc4)cc3)c2)c1 [GSK1398474]
4. CC(C)c1cc(-c2ccc3c(N)n[nH]c3c2)nc(N)n1 [GSK2250882]
5. Cc1cccc2c(-c3ccncn3)c(-c3ccc(F)cc3)nn12 [GW515532]
6. Cc1ccc(NC(=O)Nc2ccccc2F)cc1-c1ccc(C(=O)Nc2ccncc2)cc1 [GSK1398477]

-- reply
0
22
0
0
1
19

---

- Tested on: ARK5
- Construct: gene NUAK1
- CONDITION_INFO: concentration: 1 μM, replicates: in singlicate; n = 1
MEASUREMENT_LABEL: %Inh (%)
Answers are plain numbers, in %.

Some entries whose results are on file:
compound=Fc1ccc(-c2nc3n(c2-c2ccncc2)CCS3)cc1 unit_of_measure=% numeric_readout=0
compound=Nc1cccc(-c2ccc3c(N)n[nH]c3c2)n1 unit_of_measure=% numeric_readout=0
compound=O=c1cc(N2CCOCC2)nc2n(Cc3ccccc3F)ccn12 unit_of_measure=% numeric_readout=0
compound="COc1cccc(CNC(=O)NC2CCN(c3ccnc(Nc4ccc(F)cc4)n3)C2)c1 (stereo not drawn)" unit_of_measure=% numeric_readout=24
compound=CNCc1ccc2nc(NC(=O)c3ccc(C(C)(C)C)cc3)cn2c1 unit_of_measure=% numeric_readout=0
compound=CSc1ccc(-c2nc3n(c2-c2ccncc2)CCC3)cc1 unit_of_measure=% numeric_readout=0
compound="COC(=O)c1cccc(NC(=O)NC2CCN(c3ccnc(Nc4ccc(OC)cc4)n3)C2)c1 (stereo not drawn)" unit_of_measure=% numeric_readout=31
compound=CN1c2ccc(-c3ccc(C(N)=O)cc3)cc2-c2[nH]ncc2S1(=O)=O unit_of_measure=% numeric_readout=0

Would you mind listing %Inh for each of the following compounds?
1. Fc1ccc(-c2nc[nH]c2-c2ccncc2)cc1
2. CC(C)c1ccc(O)cc1Nc1ccnc2ccc(C(F)(F)F)cc12
3. Cc1nccc(-c2c(-c3ccc(F)cc3)ncn2CCCN2CCOCC2)n1.Cl
4. Cc1ccc(-c2nc(Nc3ccncc3)c3ccccc3n2)s1
5. COc1cccc(C2=C(Nc3cc(Cl)c(O)c(Cl)c3)C(=O)NC2=O)c1
6. Cc1cccc2c(-c3ccncn3)c(-c3ccc(F)cc3)nn12

-- reply
1: 0; 2: 0; 3: 0; 4: 17; 5: 26; 6: 0

-- ask Tell me its %Inh on ARK5: `COc1ccc(CSc2nnc(-c3ccc4ncsc4c3)o2)cc1C(F)(F)F`
-- reply 10

---

- Tested on: CAMK4
- CONDITION_INFO: concentration: 1 μM, replicates: in singlicate; n = 1
MEASUREMENT_LABEL: %Inh (%)
Give bare numbers, in %.

Some entries whose results are on file:
molecule=CNCc1ccc2nc(NC(=O)c3ccc(C(C)(C)C)cc3)cn2c1 measurement_target=CAMK4 measurement_label=%Inh numeric_readout=6
molecule=CNC(=O)c1ccc(C)c(-n2c(C)cc(OCc3ccc(F)cc3F)c(Br)c2=O)c1 measurement_target=CAMK4 measurement_label=%Inh numeric_readout=0

Would you mind listing %Inh for each of the following molecules?
1. CC(C)c1cc(-c2ccc3c(N)n[nH]c3c2)nc(N)n1
2. CC(=O)c1c(C)c2cnc(Nc3ccn(C)n3)nc2n(C2CCCC2)c1=O
3. COC(=O)C(Cc1ccccc1)NC(=O)NC1CCN(c2ccnc(Nc3ccc(F)cc3)n2)C1 (stereo not shown)
4. Cc1ccc(NC(=O)c2ccc(Cl)cc2)cc1-c1ccc(C(=O)Nc2ccncc2)cc1
5. FC(F)(F)c1ccccc1-c1cc(-c2c[nH]nc2-c2ccccn2)ccn1

-- reply
1: 0; 2: 0; 3: 9; 4: 0; 5: 0

---

- System: KIT
- CONDITION_INFO: concentration: 1 μM, replicates: in singlicate; n = 1
Exercise: for every item that follows, state its recorded %Inh.
Answers are plain numbers, in %.

Some entries whose results are on file:
smiles_str=Fc1ccc(-c2nc3n(c2-c2ccncc2)CCS3)cc1 measurement_label=%Inh numeric_readout=15
smiles_str=COc1ccc(CSc2nnc(-c3ccc4nccn4c3)o2)cc1C(F)(F)F measurement_label=%Inh numeric_readout=0
smiles_str=COc1ccc(Nc2nccc(NCCNC(=O)Nc3cc(C)ccc3C)n2)cc1 measurement_label=%Inh numeric_readout=0
smiles_str=CN1c2ccc(-c3ccc(C(N)=O)cc3)cc2-c2[nH]ncc2S1(=O)=O measurement_label=%Inh numeric_readout=0

Okay, now this molecule:
-- ask For `COc1ccc(CSc2nnc(-c3ccc4ncsc4c3)o2)cc1C(F)(F)F` , write its %Inh.
-- reply 18
